Tested on: HCT116
TEST DETAILS: cell viability (CellTiter-Glo) relative to plate median (fraction of plate median); higher = more viable cells
PARTICULARS: 5 µM; treatment time 24 h; reporter: TCF4/Wnt
Please respond with Condition met when measured cell viability is strictly beneath 1, and with Condition not met in all other cases.

COMPOUND | SYSTEM | LABEL
COc1ccc([C@H]2COc3c(ccc(O)c3OC)C2)c(OC)c1O | HCT116 | Condition met
COCCOC(=O)C1=C(C)NC(C)=C(C(=O)OC(C)C)C1c1cccc([N+](=O)[O-])c1 (stereo unspecified) | HCT116 | Condition met
OCC(S)CS (stereo unspecified) | HCT116 | Condition met
C=C1CCC(C2CC(=O)OC2=O)C(=O)CCC2C1CC2(C)C (stereo unspecified) | HCT116 | Condition not met
COC(=O)C[C@H]1C(C)(C)[C@@H](OC(C)=O)[C@@H]2CC3C4CC(=O)O[C@@H](c5ccoc5)[C@]4(C)CCC3[C@@]1(C)C2=O (stereo partly specified) | HCT116 | Condition met

----------
Measured TCF/Wnt firefly luciferase reporter signal, listed per entry for reference.
Test system: SW480
TEST DETAILS: TCF/Wnt firefly luciferase reporter signal relative to plate median (fraction of plate median); higher = higher Wnt reporter signal
PARTICULARS: 5 µM; treatment time 24 h; reporter: 7TFP
REPORTED METRIC: TCF/Wnt firefly luciferase reporter signal

COMPOUND | SYSTEM | TEST VALUE
CC(=O)OC1CCC23CC1(C)CCC2C(C)(C)CC3OC(C)=O (stereo unspecified) | SW480 | 0.93
O=c1c2ccccc2oc2ccccc12 | SW480 | 0.916
CC1(C)CC23C(=O)CCC(O)C2(C)CCC13 (stereo unspecified) | SW480 | 1.04
CC(=O)OC1CCC2(C)C3=C(CC[C@H]2C1(C)C)[C@@]1(C)CC[C@@H]([C@@H](C)CCC=C(C)C)[C@]1(C)CC3 (stereo partly specified) | SW480 | 1.11
Cc1cc(O)cc(O)c1C(=O)O | SW480 | 0.925
c1ccc(-c2ccc(C(c3ccccc3)n3ccnc3)cc2)cc1 (stereo unspecified) | SW480 | 0.923
OC[C@H]1O[C@H]([S-])[C@H](O)[C@@H](O)[C@@H]1O.[Au+] | SW480 | 0.265
CCC(Cc1c(I)cc(I)c(N)c1I)C(=O)O (stereo unspecified) | SW480 | 1.04
CCOC(=O)c1c(C)cc(O)cc1O | SW480 | 1.08
COc1ccc2c(c1)OC[C@@H](Cc1ccc(OC)c(OC)c1)[C@@H]2O | SW480 | 0.973
C[C@]1(OC(=O)/C=C/c2ccccc2)C[C@@H](O)[C@]2(O)C=CO[C@@H](O[C@@H]3O[C@H](CO)[C@@H](O)[C@H](O)[C@H]3O)[C@@H]21 | SW480 | 1.03

----------
System: HCT116
TEST DETAILS: cell viability (CellTiter-Glo) relative to plate median (fraction of plate median); higher = more viable cells
PARTICULARS: 5 µM; treatment time 24 h; reporter: TCF4/Wnt
Yes if cell viability is below 1. No if not; exact matches included in No.

COMPOUND | SYSTEM | LABEL
NC(=O)NC1NC(=O)NC1=O (stereo not given) | HCT116 | No
NS(=O)(=O)c1cc2c(cc1C(F)(F)F)NC(Cc1ccccc1)NS2(=O)=O (stereo not given) | HCT116 | Yes
C#CCCCCCCCCCCCC(O)CC(O)COC(C)=O (stereo not given) | HCT116 | No
C[C@]12CCC(=O)C=C1CC[C@@H]1[C@@H]2[C@@H](O)C[C@@]2(C)[C@H]1CC[C@]2(O)C(=O)CO | HCT116 | No
Nc1nc2[nH]cnc2c(=S)[nH]1 | HCT116 | Yes
CCC[C@H](N[C@@H](C)C(=O)N1[C@H](C(=O)O)C[C@@H]2CCCC[C@@H]21)C(=O)OCC | HCT116 | No
Nc1cc(C(Cl)=C(Cl)Cl)c(S(N)(=O)=O)cc1S(N)(=O)=O | HCT116 | No
O=C(CCc1ccc(O)cc1)c1c(O)cc(O)cc1O | HCT116 | Yes
